# Test System: T1, recombinant human IGSF8 extracellular domain tagged by a human Fc region (IGSF8-hFc) (human, UniProt Q969P0 28-579, biotin label in Examples 17, 18 and 28 (site not given))
# T1 construct: also called IGSF8-Fc fusion protein; IGSF8-hFc-biotin; not shown: human Fc region
# T1 sequence: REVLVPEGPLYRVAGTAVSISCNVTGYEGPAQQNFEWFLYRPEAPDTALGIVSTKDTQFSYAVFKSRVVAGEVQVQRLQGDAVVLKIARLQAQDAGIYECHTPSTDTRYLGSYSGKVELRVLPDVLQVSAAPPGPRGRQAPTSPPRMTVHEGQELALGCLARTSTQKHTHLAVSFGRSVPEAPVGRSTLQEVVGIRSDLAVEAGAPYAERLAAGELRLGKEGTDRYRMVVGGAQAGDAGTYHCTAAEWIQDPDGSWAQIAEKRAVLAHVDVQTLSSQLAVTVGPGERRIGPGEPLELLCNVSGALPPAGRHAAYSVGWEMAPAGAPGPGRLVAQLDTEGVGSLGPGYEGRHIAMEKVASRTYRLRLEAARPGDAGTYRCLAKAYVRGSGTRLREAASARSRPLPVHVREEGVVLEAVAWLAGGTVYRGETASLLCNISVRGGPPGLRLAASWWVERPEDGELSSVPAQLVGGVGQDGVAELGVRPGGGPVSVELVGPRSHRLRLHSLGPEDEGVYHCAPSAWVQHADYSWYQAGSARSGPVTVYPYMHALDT
# Test Details: SPR, Ab captured
# binarize koff: threshold 0.002 s⁻¹ inclusive, high side True, low side False

Known results for binders:
L1-17 (antibody, V domains shown) VH: QVQLVESGGGVVQPGRSLRLSCAASGFTFSTYGMHWVRQAPGKGLEWVAVIWDDGSYKYYGDSVKGRFTISRDNSKNTLYLQMNSLRAEDTAVYYCARDGSGWGYAFDIWGQGTLVTVSS VL: DIQMTQSPSSLSASVGDRVTITCQASQDIGPWLNWYQQKPGKAPKLLIYDAPNLETGVPSRFSGSGSGTDFTFTISSLQPEDIATYYCQQYDSFPYTFGQGTKVEIK ... False
L1-09 (antibody, V domains shown) VH: QVQLVESGGGVVQPGRSLRLSCAASGFTFSTYGMHWVRQAPGKGLEWVAVIWDDGSYKYYGDSVKGRFTISRDNSKNTLYLQMNSLRAEDTAVYYCARDGSGWGYAFDIWGQGTMVTVSS VL: DIQLTQSPSSLSASVGDRVTITCQASQDISEYLNWYQHKPGKAPNPLVFARDNLETGVPPRFSATGSGTDFSLTITSLQPEDFATYYCQQYDSFPYTFGQGTRLDIK ... True
L1-29 (antibody, V domains shown) VH: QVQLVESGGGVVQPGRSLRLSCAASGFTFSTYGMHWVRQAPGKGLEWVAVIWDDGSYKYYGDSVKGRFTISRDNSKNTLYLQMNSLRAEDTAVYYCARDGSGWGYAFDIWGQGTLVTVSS VL: DIQLTQSPSSLSASVGDRVTITCQASQDIGPWLNWYQHKPGKAPKPLVFDAPNLETGVPSRFSASGSGTDFTLTISSLQPEDFATYYCQQYDSFPYTFGQGTKVEIK ... False
L1-22 (antibody, V domains shown) VH: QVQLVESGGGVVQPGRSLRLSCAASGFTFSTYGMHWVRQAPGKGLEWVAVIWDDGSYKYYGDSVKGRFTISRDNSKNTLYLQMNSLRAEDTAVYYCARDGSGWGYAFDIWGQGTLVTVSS VL: DIQLTQSPSSLSASVGDRVTITCQASQDISPWLNWYQHKPGKAPKPLIYGSPNLETGVPSRFSGSGSGTDFTFTISSLQPEDIATYYCQQYDSFPYTFGQGTKVEIK ... False

Moving on to the next binder.
Prompt: Item L1VL-Q24H (antibody, V domains shown) VH: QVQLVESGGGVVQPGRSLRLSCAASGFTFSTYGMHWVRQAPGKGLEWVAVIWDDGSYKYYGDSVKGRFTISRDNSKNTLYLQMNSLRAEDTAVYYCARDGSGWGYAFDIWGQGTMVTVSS VL: DIQLTQSPSSLSASVGDRVTITCHASQDISEYLNWYQHKPGKAPNPLVFDAANLETGVPPRFSATGSGTDFSLTITSLQPEDFATYYCQQYDSFPYTFGQGTRLDIK with koff of 0.002 s⁻¹ or above?
Response: True
